# System under test: EZH2 within the PRC2 complex (Homo sapiens)
# Construct: FLAG
# Measurement protocol: EZH2 methyltransferase scintillation proximity assay (SPA)
# Setup conditions: methyltransferase activity of EZH2 in human PRC2 complex, 3H-SAM, HeLa mononucleosomes
Counter-ions that a name gives are not always drawn.
Cut-off 8 nM on IC50: below means condition met, at or above means condition not met.

Worked set:
>>> print(df.to_string())
                                   compound     discrete_label
0  Cc1cc(C)c(CNC(=O)c2cc(Br)cc3c2cnn3C(C)C)c(=O)[nH]1  condition not met
1  Cc1cc(C)c(CNC(=O)c2cc(-c3cccc(CN(C)C)c3)cc3c2cnn3C(C)C)c(=O)[nH]1  condition not met
2  CCCc1cc(C)[nH]c(=O)c1CNC(=O)c1cc(-c2ccc(N(C)C)nc2)cc2c1cnn2C(C)C  condition not met
3  CCCc1cc(C)[nH]c(=O)c1CNC(=O)c1cc(Cl)cc2c1cnn2C(C)C  condition not met
4  CCCc1cc(C)[nH]c(=O)c1CNC(=O)c1cc(-c2ccc(N3CCOCC3)nc2)cc2c1cnn2C(C)C      condition met

[Q] For this compound, is IC50 lower than 8 nM? CCCc1cc(C)[nH]c(=O)c1CNC(=O)c1cc(-c2ccc(CN(C)C)cc2)cc2c1cnn2C(C)C [Example 33, hydrochloride salt]
[A] condition met

[Q] For this compound, is IC50 lower than 8 nM? CCCc1cc(C)[nH]c(=O)c1CNC(=O)c1cc(-c2ccc(N3CCN(C)CC3)nc2)cc2c1cnn2C(C)C
[A] condition met

[Q] For this compound, is IC50 lower than 8 nM? CCCc1cc(C)[nH]c(=O)c1CNC(=O)c1cc(-c2ccsc2)cc2c1cnn2C(C)C
[A] condition not met

[Q] For this compound, is IC50 lower than 8 nM? Cc1cc(C)c(CNC(=O)c2cc(-c3ccc(OCCN(C)C)cc3)cc3c2cnn3C(C)C)c(=O)[nH]1
[A] condition not met

[Q] For this compound, is IC50 lower than 8 nM? Cc1cc(C)c(CNC(=O)c2cc(-c3ccc(N(C)C)nc3)cc3c2cnn3C(C)C)c(=O)[nH]1
[A] condition not met

[Q] For this compound, is IC50 lower than 8 nM? CCc1cc(C)[nH]c(=O)c1CNC(=O)c1cc(-c2ccc(CN(C)C)cc2)cc2c1cnn2C(C)C
[A] condition met

[Q] For this compound, is IC50 lower than 8 nM? CCc1cc(C)[nH]c(=O)c1CNC(=O)c1cc(Br)cc2c1cnn2C(C)C
[A] condition not met

[Q] For this compound, is IC50 lower than 8 nM? CCc1cc(C)[nH]c(=O)c1CNC(=O)c1cc(-c2ccc(N3CCN(C)CC3)nc2)cc2c1cnn2C(C)C
[A] condition met

[Q] For this compound, is IC50 lower than 8 nM? CCCc1cc(C)[nH]c(=O)c1CNC(=O)c1cc(-c2ccc(N)nc2)cc2c1cnn2C(C)C
[A] condition met

[Q] For this compound, is IC50 lower than 8 nM? Cc1cc(C)c(CNC(=O)c2cc(-c3ccc(N4CCNCC4)nc3)cc3c2cnn3C(C)C)c(=O)[nH]1
[A] condition not met

---

# reported IC50; entries follow
# System under test: EZH2 within the PRC2 complex (Homo sapiens, UniProt Q15910)
# Construct: FLAG
# Sequence (Q15910 whole entry): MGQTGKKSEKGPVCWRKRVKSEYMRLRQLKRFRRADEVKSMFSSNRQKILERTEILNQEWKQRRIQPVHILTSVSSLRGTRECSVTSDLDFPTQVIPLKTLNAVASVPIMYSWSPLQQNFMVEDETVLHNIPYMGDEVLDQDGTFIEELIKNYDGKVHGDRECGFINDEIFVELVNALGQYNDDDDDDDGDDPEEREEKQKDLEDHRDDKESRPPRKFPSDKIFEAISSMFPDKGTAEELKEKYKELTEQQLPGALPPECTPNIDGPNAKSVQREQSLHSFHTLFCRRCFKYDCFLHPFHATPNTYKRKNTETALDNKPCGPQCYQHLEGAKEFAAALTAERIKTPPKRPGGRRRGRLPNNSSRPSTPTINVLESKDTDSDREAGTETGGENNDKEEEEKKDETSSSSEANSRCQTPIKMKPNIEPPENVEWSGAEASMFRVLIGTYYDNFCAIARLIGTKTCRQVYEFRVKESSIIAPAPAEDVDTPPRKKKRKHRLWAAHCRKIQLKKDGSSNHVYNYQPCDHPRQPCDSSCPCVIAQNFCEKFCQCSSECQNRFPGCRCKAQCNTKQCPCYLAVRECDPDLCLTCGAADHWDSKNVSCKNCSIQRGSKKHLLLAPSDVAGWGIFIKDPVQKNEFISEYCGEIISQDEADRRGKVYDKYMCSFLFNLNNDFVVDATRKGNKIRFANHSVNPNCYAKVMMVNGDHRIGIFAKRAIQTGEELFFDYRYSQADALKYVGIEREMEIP
# Sequence (O75530 whole entry partner): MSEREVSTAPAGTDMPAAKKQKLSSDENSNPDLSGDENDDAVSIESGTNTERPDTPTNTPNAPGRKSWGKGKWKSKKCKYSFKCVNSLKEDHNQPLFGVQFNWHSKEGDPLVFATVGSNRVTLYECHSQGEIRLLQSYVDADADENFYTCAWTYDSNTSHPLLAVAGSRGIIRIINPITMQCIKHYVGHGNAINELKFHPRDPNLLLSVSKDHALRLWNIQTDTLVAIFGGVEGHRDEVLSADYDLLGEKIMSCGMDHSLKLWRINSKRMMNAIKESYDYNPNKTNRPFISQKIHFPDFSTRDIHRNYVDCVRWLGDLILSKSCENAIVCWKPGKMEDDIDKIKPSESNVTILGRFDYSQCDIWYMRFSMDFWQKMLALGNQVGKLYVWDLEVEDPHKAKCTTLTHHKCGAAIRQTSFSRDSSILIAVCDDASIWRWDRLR
# Sequence (Q15022 whole entry partner): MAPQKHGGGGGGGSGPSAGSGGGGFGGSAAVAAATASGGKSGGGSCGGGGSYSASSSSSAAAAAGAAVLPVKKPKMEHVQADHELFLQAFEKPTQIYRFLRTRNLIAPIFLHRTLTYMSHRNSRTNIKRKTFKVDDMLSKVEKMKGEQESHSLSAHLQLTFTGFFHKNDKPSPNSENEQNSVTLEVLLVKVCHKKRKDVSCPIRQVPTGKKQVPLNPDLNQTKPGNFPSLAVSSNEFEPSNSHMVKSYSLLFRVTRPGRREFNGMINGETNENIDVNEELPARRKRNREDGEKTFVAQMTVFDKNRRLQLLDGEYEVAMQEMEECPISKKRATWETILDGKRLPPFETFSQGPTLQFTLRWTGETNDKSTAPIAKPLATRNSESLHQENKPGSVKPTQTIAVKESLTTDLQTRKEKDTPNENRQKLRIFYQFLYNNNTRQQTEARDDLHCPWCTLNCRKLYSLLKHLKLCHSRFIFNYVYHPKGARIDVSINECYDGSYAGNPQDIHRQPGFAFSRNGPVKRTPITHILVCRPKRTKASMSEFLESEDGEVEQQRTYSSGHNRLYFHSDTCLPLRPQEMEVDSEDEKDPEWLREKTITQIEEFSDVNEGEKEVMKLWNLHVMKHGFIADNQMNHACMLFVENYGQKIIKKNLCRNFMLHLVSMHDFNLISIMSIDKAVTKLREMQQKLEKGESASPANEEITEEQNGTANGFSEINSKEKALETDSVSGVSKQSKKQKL
# Sequence (Q09028 whole entry partner): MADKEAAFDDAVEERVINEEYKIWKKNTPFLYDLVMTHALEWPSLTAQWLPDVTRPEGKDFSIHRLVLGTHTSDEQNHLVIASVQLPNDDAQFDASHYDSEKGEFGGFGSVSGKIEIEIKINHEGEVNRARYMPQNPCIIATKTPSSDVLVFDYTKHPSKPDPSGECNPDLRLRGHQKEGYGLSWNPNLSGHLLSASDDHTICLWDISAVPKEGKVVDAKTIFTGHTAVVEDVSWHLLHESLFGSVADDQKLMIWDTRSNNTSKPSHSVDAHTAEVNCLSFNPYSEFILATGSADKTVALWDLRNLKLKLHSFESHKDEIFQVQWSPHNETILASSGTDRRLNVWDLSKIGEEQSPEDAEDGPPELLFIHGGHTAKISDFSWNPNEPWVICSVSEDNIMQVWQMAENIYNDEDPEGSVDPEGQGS
# Sequence (Q6ZN18 whole entry partner): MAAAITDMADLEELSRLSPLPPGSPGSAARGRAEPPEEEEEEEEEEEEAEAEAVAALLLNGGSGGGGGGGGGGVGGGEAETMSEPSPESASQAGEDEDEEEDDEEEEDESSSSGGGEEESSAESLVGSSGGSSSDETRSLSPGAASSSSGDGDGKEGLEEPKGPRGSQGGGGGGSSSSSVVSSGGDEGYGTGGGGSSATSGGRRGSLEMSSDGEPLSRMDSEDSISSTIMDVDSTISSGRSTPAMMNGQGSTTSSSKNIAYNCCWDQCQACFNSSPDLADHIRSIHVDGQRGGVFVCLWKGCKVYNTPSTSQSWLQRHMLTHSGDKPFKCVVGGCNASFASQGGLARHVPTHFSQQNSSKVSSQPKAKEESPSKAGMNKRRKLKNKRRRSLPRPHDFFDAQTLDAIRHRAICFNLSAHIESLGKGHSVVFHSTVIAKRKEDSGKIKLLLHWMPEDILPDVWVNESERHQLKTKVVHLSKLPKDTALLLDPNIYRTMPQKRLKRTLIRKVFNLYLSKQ
# Measurement protocol: EZH2 methyltransferase scintillation proximity assay (SPA)
# Setup conditions: methyltransferase activity of EZH2 in human PRC2 complex, 3H-SAM, HeLa mononucleosomes
Use µM as the unit, but write only the number.

Examples with their reported IC50 follow.
>>> print(df.to_string())
                                   molecule  assay_result
0  CCCc1cc(C)[nH]c(=O)c1CNC(=O)c1cc(-c2ccc(N3CCNCC3)nc2)cc2c1cnn2C(C)C [Example 15]         0.002
1  CCCc1cc(C)[nH]c(=O)c1CNC(=O)c1cc(-c2cccnc2C)cc2c1cnn2C(C)C [Example 25]         0.013

For reference, reported IC50 for Cc1cc(C)c(CNC(=O)c2cc(-c3ccc(N4CCNCC4)cc3)cc3c2cnn3C(C)C)c(=O)[nH]1 [Example 9] stands at 0.016

For reference, reported IC50 for Cc1cc(C)c(CNC(=O)c2cc(-c3cnn(C)c3)cc3c2cnn3C(C)C)c(=O)[nH]1 [Example 13] stands at 0.126

For reference, reported IC50 for CCCc1cc(C)[nH]c(=O)c1CNC(=O)c1cc(-c2cnc(N)nc2)cc2c1cnn2C(C)C [Example 20] stands at 0.01
